# Tested on: OVCAR-8
# test summary: NCI tumour cell line growth inhibition, 48 h
The source made the active and inactive calls. Cut-off read from the data, not from the text of the source: active = GI50 up to about 1.1 µM and inactive = higher.
attribute measured: GI50

Below, 5 compounds whose answers are already recorded.
Could you tell me which GI50 is on file for `COc1cc(O)c2c(c1)O[C@@H]1OCC[C@H]21` ?
> 100 µM (inactive)

Dear colleague, I am looking for the recorded GI50 of the following compound: `CC(C)OP(=O)(OC(C)C)/C(Cl)=N/Nc1ccc([N+](=O)[O-])cc1`
> 100 µM (inactive)

Which GI50 value belongs to C[C@H]1[C@@H]2C[C@@H]3O[C@@]34[C@H]3CCC5Cc6nc7c(nc6C[C@@]5(C)[C@]3(O)CC(=O)[C@@]24CO[C@]12OC(C)(C)C[C@@H]2O)CC1CC[C@@H]2C3=C[C@H]4O[C@@]5(OC(C)(CO)C[C@@H]5O)[C@H](C)[C@@]4(O)[C@]3(C)[C@@H](O)CC2[C@]1(C)C7 (stereo partly drawn) ?
3.02 µM (inactive)

For the compound shown here, `COc1ccccc1/N=N/c1c(O)c(S(=O)(=O)O)cc2cc(S(=O)(=O)O)ccc12` , give the reported GI50.
> 100 µM (inactive)

Could you tell me which GI50 is on file for `Cc1cccc(/C(Br)=C2/OC(=O)c3ccccc32)c1` ?
> 100 µM (inactive)

---
Sample N#CC1(C#N)C(c2ccccc2)C=CC12OCCCO2 (stereo not drawn) — what was its GI50?
17.7 µM (inactive)

GET /values?readout=GI50&item= `N#CC(C#N)=C1NN=C(Cl)c2ccccc21`
> 100 µM (inactive)

# lookup: GI50 of `N#Cc1c(-c2ccc(Cl)cc2)cc(-c2ccc(Nc3ccnc4cc(Cl)ccc34)cc2)[nH]c1=O`
> 100 µM (inactive)

---

# System: UACC-62
# test summary: NCI tumour cell line growth inhibition, 48 h
Calls of active or inactive are those of the source. Rule as the data show it: active = GI50 up to about 1.1 µM and inactive = higher.
The molecules listed here are annotated with their GI50.

Answered examples (3):
Please state recorded GI50 (tested on UACC-62) of `C/C(CC(=O)Nc1ccc(Cl)c(Cl)c1)=N/NC(=O)C[n+]1ccccc1`
> 100 µM (inactive)

Given the entry `C[n+]1cccc(NC(=O)c2ccc(NC(=O)C34CCC(C(=O)Nc5ccc(C(=O)Nc6ccc[n+](C)c6)cc5)(CC3)CC4)cc2)c1` , what GI50 was observed with UACC-62?
> 100 µM (inactive)

Record `O=C(O)c1ccc([N+](=O)[O-])c2c(=O)c3ccccc3[nH]c12` : what is its GI50 with UACC-62?
> 100 µM (inactive)

Others:
Recall the recorded GI50 for CC(=O)OCC12C(OC(C)=O)C[C@@H](C)C3(CC(c4ccoc4)OC3=O)C1CCC(OC(C)=O)C21CO1 (some centres undefined) with UACC-62 and state it.
> 100 µM (inactive)

Form field - read-out: GI50; system: UACC-62; submitted item: CC(=O)O/C(=C(/C#N)C(=O)O)C1C(C(=O)O)C(c2ccccc2[N+](=O)[O-])C=C(c2ccco2)N1c1ccncc1 (centres undefined)
7.52 µM (inactive)

Missing value: GI50, UACC-62, entry `N#CC(C#N)=C1NN=C(Cl)c2ccccc21` . Fill in?
70.5 µM (inactive)

Hi! What's the reported GI50 for O=C(/N=C1/NCC(CN2CCN(c3ccccc3)CC2)O1)Nc1ccccc1 (centres undefined) on UACC-62?
> 100 µM (inactive)

Value wanted: GI50 (UACC-62) of entry `CC(C)(C)C(=O)C(c1ccc(-c2cscn2)cc1)c1ccc(-c2cscn2)cc1`
21.7 µM (inactive)

# value lookup — system UACC-62, readout GI50, item OC1CCC(C2C3CCCCC3C3CCCCC3C2C2CCC(O)CC2)CC1 (centres undefined)
7.16 µM (inactive)
